# System: myelin basic protein (MBP)-specific T lymphocyte cell lines
# test.summary: Inhibition of T-lymphocyte migration across rat brain endothelial cell layer (Transwell, 51Cr-labelled cells)
# Format: cell-based, Lewis rats
# assay.conditions: test substance 10 mmolar in upper well; 6 hours; in comparison with the negative control (glucose 6-phosphate); triplicate
Each entry below carries its recorded % inhibition ± SEM.
The reply should contain only the number, in %.

# count of solved cases: 4
>>> test_value("CCCCCOC(=O)CC1OC(COP(=O)(O)O)C(O)C(O)C1O (centres unmarked)")
80
>>> test_value("CCOC(=O)CC1OC(COP(=O)(O)O)C(O)C(O)C1O (centres unmarked)")
70
>>> test_value("O=C(O)CC1OC(COP(=O)(O)O)C(O)C(O)C1O (centres unmarked)")
32
>>> test_value("O=C[C@H](O)[C@@H](O)[C@H](O)[C@H](O)COP(=O)(O)O [glucose 6-phosphate, reference compound]")
0

// moving on: another record for % inhibition ± SEM
Prompt: Given the compound CCCC1OC(COP(=O)(O)O)C(O)C(O)C1O (centres unmarked) , what is its reported % inhibition ± SEM?
Response: 64
